For each of the compounds below, state its Growth.
- Test system: MOLT-4
- Experiment: Percent growth of leukemia MOLT-4 cell line was determined at 10e-5 M concentration after 48 hr of exposing
- Type: functional, Homo sapiens
Numbers only, in %.

CN(C)CCn1c(=O)c2ccc(NCCCN(C)CCCNc3ccc4c(=O)n(CCN(C)C)c(=O)n5c6ccccc6c(=O)c3c45)c3c(=O)c4ccccc4n(c1=O)c23; -71
COc1ccc2c(c1)-c1nn(CCN(C)C)c3ccc(C(=O)NCCCN(C)CCCNC(=O)c4ccc5c6c(c7cc(OC)ccc7nc46)NN5CCN(C)C)c(c13)N2; -28
CN(C)CCn1c(=O)c2ccc(NCCCN(C)CCCNc3ccc4c(=O)n(CCN(C)C)c(=O)n5c6ccc(O)cc6c(=O)c3c45)c3c(=O)c4cc(O)ccc4n(c1=O)c23; -60
COc1ccc2c(c1)c(=O)c1c(NCCCN(C)CCCNc3ccc4c(=O)n(CCN(C)C)c(=O)n5c6ccc(OC)cc6c(=O)c3c45)ccc3c(=O)n(CCN(C)C)c(=O)n2c31; -62
CN(C)CCN1Nc2c3ccccc3nc3c(C(=O)NCCCN(C)CCCNC(=O)c4ccc5c6c(c7ccccc7nc46)NN5CCN(C)C)ccc1c23; -27

Shifting focus to the compound that follows.
What the record says about CN(C)CCn1c(=O)c2ccc(NCCCN(C)CCCNc3ccc4c(=O)n(CCN(C)C)c(=O)n5c6ccc([N+](=O)[O-])cc6c(=O)c3c45)c3c(=O)c4cc([N+](=O)[O-])ccc4n(c1=O)c23 : Growth is -50

====

- Test system: LoVo
- Experiment: Cytotoxicity against doxorubicin resistant LoVo cell line was determined against 1 hour
- Assay type: functional, cell-based
- Cond: Homo sapiens
Observed property: IC50 (µM)
One number for each entry, in µM.

CN(C)CCn1c(=O)c2ccc(NCCCN(C)CCCNc3ccc4c(=O)n(CCN(C)C)c(=O)n5c6ccccc6c(=O)c3c45)c3c(=O)c4ccccc4n(c1=O)c23; 0.011
CN(C)CCN1Nc2c3ccccc3nc3c(C(=O)NCCCN(C)CCCNC(=O)c4ccc5c6c(c7ccccc7nc46)NN5CCN(C)C)ccc1c23; 3.6

What the record says about COc1cccc2c1C(=O)c1c(O)c3c(c(O)c1C2=O)C[C@@](O)(C(=O)CO)C[C@@H]3O[C@H]1C[C@H](N)[C@H](O)[C@H](C)O1 [DOXORUBICIN] : IC50 is 9.1

====

- System: Nucleic Acid
- Experiment: Binding site preference is determined as the ratio of AT to GC
Observed property: Binding site preference
Numbers only.

As a guide, the following entries are already answered.
COc1cc2c(=O)c3c(NCCN(C)C)ccc4c(=O)n(CCN(C)C)c(=O)n(c2cc1OC)c43; 0.12
CN(C)CCNc1ccc2c(=O)n(CCN(C)C)c(=O)n3c4ccc(O)cc4c(=O)c1c23; 0.25
CN(C)CCNc1ccc2c(=O)n(CCN(C)C)c(=O)n3c4ccc([N+](=O)[O-])cc4c(=O)c1c23; 0.12
CN(C)CCNc1ccc2c(=O)n(CCN(C)C)c(=O)n3c4ccccc4c(=O)c1c23; 0.57

Shifting focus to the compound that follows.
What the record says about COc1ccc2c(c1)c(=O)c1c(NCCN(C)C)ccc3c(=O)n(CCN(C)C)c(=O)n2c31 : Binding site preference is 0.22

====

- Test system: Nucleic Acid
- Experiment: Binding site preference is determined as the ratio of Poly (dA-dT)2 to Poly (dG-dC)2
- Format: nucleic-acid assay
// NB: equality with 3 counts as criterion not met; only Binding site preference strictly below is criterion met

The following molecules have reported results that may help.
CN(C)CCN1Nc2c3cc(O)ccc3nc3c(C(=O)NCCN(C)CCNC(=O)c4ccc5c6c(c7cc(O)ccc7nc46)NN5CCN(C)C)ccc1c23; criterion met
COc1ccc2c(c1)c(=O)c1c(NCCCN(C)CCCNc3ccc4c(=O)n(CCN(C)C)c(=O)n5c6ccc(OC)cc6c(=O)c3c45)ccc3c(=O)n(CCN(C)C)c(=O)n2c31; criterion met
CN(C)CCNc1ccc(C(=O)NCCCN(C)CCCNC(=O)c2ccc(NCCN(C)C)c3c(=O)c4ccccc4[nH]c23)c2[nH]c3ccccc3c(=O)c12; criterion not met
COc1ccc2nc3c(C(=O)NCCCN(C)CCCNC(=O)c4ccc(NCCN(C)C)c5c(O)c6cc(OC)ccc6nc45)ccc(NCCN(C)C)c3c(O)c2c1; criterion met
CN(C)CCNC(=O)c1ccc(NCCCN(C)CCCNc2ccc(C(=O)NCCN(C)C)c3nc4ccc(O)cc4c(O)c23)c2c(O)c3cc(O)ccc3nc12; criterion met

Continue with the next molecule.
Task: Binding site preference strictly < 3 for this molecule? CN(C)CCN1Nc2c3ccccc3nc3c(C(=O)NCCCN(C)CCCNC(=O)c4ccc5c6c(c7ccccc7nc46)NN5CCN(C)C)ccc1c23
Output: criterion met

====

For each of the compounds below, state its Growth.
- System: SW-620
- Experiment: Percent growth of colon SW-620 cell line was determined at 10e-6 M concentration after 48 hr of exposing
- Assay type: functional, Homo sapiens
Answers are plain numbers, in %.

As a guide, the following entries are already answered.
CN(C)CCN1Nc2c3ccccc3nc3c(C(=O)NCCCN(C)CCCNC(=O)c4ccc5c6c(c7ccccc7nc46)NN5CCN(C)C)ccc1c23; 14
COc1ccc2c(c1)-c1nn(CCN(C)C)c3ccc(C(=O)NCCCN(C)CCCNC(=O)c4ccc5c6c(c7cc(OC)ccc7nc46)NN5CCN(C)C)c(c13)N2; 3
CN(C)CCn1c(=O)c2ccc(NCCCN(C)CCCNc3ccc4c(=O)n(CCN(C)C)c(=O)n5c6ccccc6c(=O)c3c45)c3c(=O)c4ccccc4n(c1=O)c23; -25
CN(C)CCn1c(=O)c2ccc(NCCCN(C)CCCNc3ccc4c(=O)n(CCN(C)C)c(=O)n5c6ccc([N+](=O)[O-])cc6c(=O)c3c45)c3c(=O)c4cc([N+](=O)[O-])ccc4n(c1=O)c23; 5
CN(C)CCn1c(=O)c2ccc(NCCCN(C)CCCNc3ccc4c(=O)n(CCN(C)C)c(=O)n5c6ccc(O)cc6c(=O)c3c45)c3c(=O)c4cc(O)ccc4n(c1=O)c23; 10

Shifting focus to the compound that follows.
What the record says about COc1ccc2c(c1)c(=O)c1c(NCCCN(C)CCCNc3ccc4c(=O)n(CCN(C)C)c(=O)n5c6ccc(OC)cc6c(=O)c3c45)ccc3c(=O)n(CCN(C)C)c(=O)n2c31 : Growth is -2

====

- Experiment: Cytotoxicity against human MKN45 cancer cell line was determined after 1 hr
- Format: cell-based
- Cond: Cancer cell lines
For each of the compounds below, state its IC50.
Answers are plain numbers, in nM.

Field: IC50. Fill in for each record below.
1. COc1ccc2c(c1)c(=O)c1c(NCCCN(C)CCCNc3ccc4c(=O)n(CCN(C)C)c(=O)n5c6ccc(OC)cc6c(=O)c3c45)ccc3c(=O)n(CCN(C)C)c(=O)n2c31
2. COc1ccc2c(c1)-c1nn(CCN(C)C)c3ccc(C(=O)NCCCN(C)CCCNC(=O)c4ccc5c6c(c7cc(OC)ccc7nc46)NN5CCN(C)C)c(c13)N2
3. CN(C)CCn1c(=O)c2ccc(NCCCN(C)CCCNc3ccc4c(=O)n(CCN(C)C)c(=O)n5c6ccc([N+](=O)[O-])cc6c(=O)c3c45)c3c(=O)c4cc([N+](=O)[O-])ccc4n(c1=O)c23
4. CN(C)CCN1Nc2c3ccccc3nc3c(C(=O)NCCCN(C)CCCNC(=O)c4ccc5c6c(c7ccccc7nc46)NN5CCN(C)C)ccc1c23
5. O=C1c2c(O)ccc(O)c2C(=O)c2c(NCCNCCO)ccc(NCCNCCO)c21

Output:
1. 0.05
2. 51
3. 1.3
4. 6.8
5. 6.8

====

- System: SW-620
- Experiment: Percent growth of colon SW-620 cell line was determined at 10e-5 M concentration after 48 hr of exposing
- Assay type: functional, Homo sapiens
For each of the molecules below, state its Growth.
Numbers only, in %.

CN(C)CCn1c(=O)c2ccc(NCCCN(C)CCCNc3ccc4c(=O)n(CCN(C)C)c(=O)n5c6ccc([N+](=O)[O-])cc6c(=O)c3c45)c3c(=O)c4cc([N+](=O)[O-])ccc4n(c1=O)c23; -16
CN(C)CCn1c(=O)c2ccc(NCCCN(C)CCCNc3ccc4c(=O)n(CCN(C)C)c(=O)n5c6ccc(O)cc6c(=O)c3c45)c3c(=O)c4cc(O)ccc4n(c1=O)c23; -8
COc1ccc2c(c1)-c1nn(CCN(C)C)c3ccc(C(=O)NCCCN(C)CCCNC(=O)c4ccc5c6c(c7cc(OC)ccc7nc46)NN5CCN(C)C)c(c13)N2; -39
COc1ccc2c(c1)c(=O)c1c(NCCCN(C)CCCNc3ccc4c(=O)n(CCN(C)C)c(=O)n5c6ccc(OC)cc6c(=O)c3c45)ccc3c(=O)n(CCN(C)C)c(=O)n2c31; -49
CN(C)CCN1Nc2c3ccccc3nc3c(C(=O)NCCCN(C)CCCNC(=O)c4ccc5c6c(c7ccccc7nc46)NN5CCN(C)C)ccc1c23; -45

Shifting focus to the molecule that follows.
What the record says about CN(C)CCn1c(=O)c2ccc(NCCCN(C)CCCNc3ccc4c(=O)n(CCN(C)C)c(=O)n5c6ccccc6c(=O)c3c45)c3c(=O)c4ccccc4n(c1=O)c23 : Growth is -89

Value source: ChEMBL document CHEMBL1138784
